- assayInfo: NCI Yeast Anticancer Drug Screen. Data for the sgs1 mgt1 strain (AID 161);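 further: 0% = growth of cultures given vehicle only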
- protocolConditions: S. cerevisiae sgs1 mgt1 strain, at 50.0 µM, hits give high values
Compounds without any hit were thinned out: in the full panel of roughly 79,000, 15% have a hit.
measurementLabel: growth inhibition (%)
Write the value in % as a bare number.

Study these solved cases before continuing.
[[record]]
compound = "CN1C2C=CC1c1c(C3=NC(C)(C)CO3)cccc12 (configuration not stated)"
outputunit = "%"
experimentalresult = -7.95

[[record]]
compound = "CCCCCCCCCCCCCCCCCC(=O)NC(CC(=O)OCCCCCC)c1ccc(N(CCCl)CCCl)cc1 (configuration not stated)"
outputunit = "%"
experimentalresult = 12.8

[[record]]
compound = "c1ccc(-c2ccc([As](c3ccccc3)c3ccccc3)cc2)cc1"
outputunit = "%"
experimentalresult = 19.6

[[record]]
compound = "[N-]=[N+]=NP1(=O)OC(c2ccccc2)=CCN1c1ccccc1 (configuration not stated)"
outputunit = "%"
experimentalresult = -8.45

[[record]]
compound = "[Se]=[Nb]=[Se]"
outputunit = "%"
experimentalresult = -18.3

[[record]]
compound = "CCC[CH2][Sn]([CH2]CCC)([N]=C=S)[N]=C=S"
outputunit = "%"
experimentalresult = 98


Would you mind telling me what growth inhibition value was observed for "N.N.O=P([O-])([O-])CN(CP(=O)([O-])[O-])CP(=O)([O-])[O-].[Pt+2]" ? -11.1

Entry O=C(OC1CN2CCC1CC2)N(c1ccccc1)c1ccccc1 (configuration not stated) : reported growth inhibition = ? -4.1

Entry "C1CN([PH+](N2CC2)N2CC2)CCO1.C1CN([PH+](N2CC2)N2CC2)CCO1.[I][Pd][I]" : reported growth inhibition = ? -5.7

So what does the record say about growth inhibition for "COc1cc[c]([Pb]([c]2ccc(Cl)cc2)([c]2ccc(Cl)cc2)[c]2ccc(OC)cc2)cc1" ? -1.1

Using the record for "O=C1N[C@H]2[C@H](O)[C@H](O)[C@@H](O)[C@H](O)[C@@H]2c2cc3c(c(O)c21)OCO3" , report its growth inhibition. 67.2

Param item = COP1(=S)OCC(C(C)(C)C)CO1 (configuration not stated) ; retrieve measured growth inhibition. -2.1

Item CC(C)CCCC(C)[C@H]1CCC2[C@@H]3CCC4Cc5nc6c(nc5C[C@]4(C)C3CC[C@@]21C)CC1CC[C@@H]2C(CC[C@@]3(C)C2CC[C@@H]3O)[C@@]1(C)C6 (some centres not stated) has what recorded growth inhibition? -12

growth inhibition lookup needed for "CCOP(=O)(OCC)/C(C#N)=C/c1cn(C)cn1" , thanks. -5.95

What does the record list as growth inhibition for "CC(CC(C)(C)[N-]CC[O-])=NCCO.O=[N+]([O-])O.[Cu+2]" ? -5.7

# query: growth inhibition of entry "C[PH+](C)C.C[PH+](C)C.[Au]" 91

State the recorded growth inhibition for this entry: CCOC(=O)C(C)Br (configuration not stated) 28.3

Recorded growth inhibition of "O=[N+]([O-])c1cc[n+]([O-])c2ccccc12" , please. 54.9

Given CC1(C)OC2(C)CCC1C(O)C2N1CCCCC1 (configuration not stated) , state its recorded growth inhibition. -13.4

Reported growth inhibition for "CC(=O)O.CC(=O)O.CC(=O)O.CC(=O)O.[Cu].[Cu]" : what is it? 56.5

Would you mind telling me what growth inhibition value was observed for "C1CC[N-]CC1.CC(=N\O)/C(C)=N/O.CC(=N\O)/C(C)=N/O.C[CH-]C(C)O.[Co+2]" ? 36.3

Data request, read-out growth inhibition, for NC(CCOCCP(=O)(O)O)C(=O)O (configuration not stated) -44
